Tested on: human RBCs
TEST: Hemolysis of human RBCs
Format: cell-based
Square brackets hold non-standard residues; d marks the D form. Peptide text beside a SMILES is read from it.
MEASURE: Hemolysis at 100 μM
Answer with a number only.

>  <MOLECULE>
CC(C)C[C@@H](NC(=O)[C@@H](CCCNC(=N)N)NC(=O)[C@@H](CCCNC(=N)N)NC(=O)[C@@H](Cc1c[nH]c2ccccc12)NC(=O)[C@@H](CCCNC(=N)N)NC(=O)[C@H](N)CCCNC(=N)N)C(=O)N[C@H](C)C(=O)N[C@H](Cc1ccccc1)C(=O)N[C@H](C)C(=O)N[C@H](Cc1ccccc1)C(=O)N[C@H](CCCNC(=N)N)C(=O)N[C@H](CCCNC(=N)N)C(N)=O [D-CONGA-ΔA4, rrwrrlafafrr (All D)] (H-[dR][dR][dW][dR][dR][dL][dA][dF][dA][dF][dR][dR]-NH2)

>  <MEASURE>
Hemolysis at 100 μM

>  <EXPERIMENTAL_VALUE>
0.02

$$$$

Query string: Item CC(C)C[C@@H](NC(=O)[C@@H](CCCNC(=N)N)NC(=O)[C@H](CCCNC(=N)N)NC(=O)[C@@H](C)NC(=O)[C@@H](Cc1c[nH]c2ccccc12)NC(=O)[C@@H](CCCNC(=N)N)NC(=O)[C@H](N)CCCNC(=N)N)C(=O)N[C@H](C)C(=O)N[C@H](Cc1ccccc1)C(=O)N[C@@H](C)C(=O)N[C@H](Cc1ccccc1)C(=O)N[C@H](CCCNC(=N)N)C(=O)N[C@H](CCCNC(=N)N)C(N)=O [D-CONGA-L(R5, A10), rrwaRrlafAfrr] (H-[dR][dR][dW][dA]R[dR][dL][dA][dF]A[dF][dR][dR]-NH2) : provide Hemolysis at 100 μM
Result string: 0.04

* * *

Test system: E. coli
Format: cell-based
MEASUREMENT_SETUP: absence of RBC; Table 3
Square brackets hold non-standard residues; d marks the D form. Peptide text beside a SMILES is read from it.
MEASURE: MIC in Broth Dilution, E. coli, RBC − (µM)
Kindly answer with a numeric value in µM, unit omitted.

Query string: Identify the reported MIC in Broth Dilution, E. coli, RBC − for the following entry. CC(C)C[C@@H](NC(=O)[C@@H](CCCNC(=N)N)NC(=O)[C@@H](CCCNC(=N)N)NC(=O)[C@@H](Cc1c[nH]c2ccccc12)NC(=O)[C@@H](CCCNC(=N)N)NC(=O)[C@H](N)CCCNC(=N)N)C(=O)N[C@H](C)C(=O)N[C@H](Cc1ccccc1)C(=O)N[C@H](C)C(=O)N[C@H](Cc1ccccc1)C(=O)N[C@H](CCCNC(=N)N)C(=O)N[C@H](CCCNC(=N)N)C(N)=O [D-CONGA-ΔA4, rrwrrlafafrr (All D)] (H-[dR][dR][dW][dR][dR][dL][dA][dF][dA][dF][dR][dR]-NH2)
Result string: 1.6

* * *

Tested on: E. coli
Format: cell-based
MEASUREMENT_SETUP: absence of RBC; Table 3
Bridge positions count the residues as written; N and C are the ends. Square brackets hold non-standard residues; d marks the D form. Peptide text beside a SMILES is read from it. d(hArg) = N=C(N)NCCCC[C@@H](N)C(=O)O
Recorded MIC in Broth Dilution, E. coli, RBC −, one value per entry.
Record the value in µM, omitting the unit from your answer.

Some solved cases for reference:
>  <COMPOUND>
CC(C)C[C@@H](NC(=O)CNC(=O)[C@@H](CCCNC(=N)N)NC(=O)[C@@H](CCCNC(=N)N)NC(=O)[C@@H](C)NC(=O)[C@@H](Cc1c[nH]c2ccccc12)NC(=O)[C@@H](CCCNC(=N)N)NC(=O)[C@H](N)CCCNC(=N)N)C(=O)N[C@H](C)C(=O)N[C@H](Cc1ccccc1)C(=O)N[C@H](C)C(=O)N[C@H](Cc1ccccc1)C(=O)N[C@H](CCCNC(=N)N)C(=O)N[C@H](CCCNC(=N)N)C(N)=O [D-CONGA-G7, rrwarrglafafrr (All D)] (H-[dR][dR][dW][dA][dR][dR]G[dL][dA][dF][dA][dF][dR][dR]-NH2)

>  <MEASURE>
MIC in Broth Dilution, E. coli, RBC −

>  <EXPERIMENTAL_VALUE>
1.3

$$$$
>  <COMPOUND>
CC(C)C[C@H](NC(=O)[C@H](CCCNC(=N)N)NC(=O)[C@H](CCCNC(=N)N)NC(=O)[C@H](C)NC(=O)[C@H](Cc1c[nH]c2ccccc12)NC(=O)[C@H](CCCNC(=N)N)NC(=O)[C@H](N)CCCNC(=N)N)C(=O)N[C@@H](C)C(=O)N[C@@H](Cc1ccccc1)C(=O)N[C@@H](C)C(=O)N[C@@H](Cc1ccccc1)C(=O)N[C@@H](CCCNC(=N)N)C(=O)N[C@H](CCCNC(=N)N)C(N)=O [L-CONGA-D(R1, R13)] (H-[dR]RWARRLAFAFR[dR]-NH2)

>  <MEASURE>
MIC in Broth Dilution, E. coli, RBC −

>  <EXPERIMENTAL_VALUE>
20

$$$$
>  <COMPOUND>
CC(C)C[C@@H](NC(=O)[C@@H](CCCNC(=N)N)NC(=O)[C@@H](CCCNC(=N)N)NC(=O)[C@@H](C)NC(=O)[C@@H](Cc1c[nH]c2ccccc12)NC(=O)[C@@H](CCCNC(=N)N)NC(=O)[C@H](N)CCCNC(=N)N)C(=O)N[C@H](C)C(=O)N[C@H](Cc1ccccc1)C(=O)N[C@H](Cc1ccccc1)C(=O)N[C@H](CCCNC(=N)N)C(=O)N[C@H](CCCNC(=N)N)C(N)=O [D-CONGA-ΔA10, rrwarrlaffrr (All D)] (H-[dR][dR][dW][dA][dR][dR][dL][dA][dF][dF][dR][dR]-NH2)

>  <MEASURE>
MIC in Broth Dilution, E. coli, RBC −

>  <EXPERIMENTAL_VALUE>
0.7

$$$$
>  <COMPOUND>
CC(C)C[C@@H]1NC(=O)[C@H](CCCNC(=N)N)NC(=O)[C@H](CCCNC(=N)N)NC(=O)[C@H](C)NC(=O)[C@H](Cc2c[nH]c3ccccc23)NC(=O)[C@H](CCCNC(=N)N)NC(=O)[C@H](CCCNC(=N)N)NC(=O)[C@H](CCCNC(=N)N)NC(=O)[C@H](CCCNC(=N)N)NC(=O)[C@H](Cc2ccccc2)NC(=O)[C@H](C)NC(=O)[C@H](Cc2ccccc2)NC(=O)[C@H](C)NC1=O [CYCLIZED-L-CONGA-OH] (cyclo(RRWARRLAFAFRR))

>  <MEASURE>
MIC in Broth Dilution, E. coli, RBC −

>  <EXPERIMENTAL_VALUE>
5.9

$$$$
>  <COMPOUND>
CC(C)C[C@@H](NC(=O)[C@@H](CCCCNC(=N)N)NC(=O)[C@@H](CCCCNC(=N)N)NC(=O)[C@@H](C)NC(=O)[C@@H](Cc1c[nH]c2ccccc12)NC(=O)[C@@H](CCCNC(=N)N)NC(=O)[C@H](N)CCCNC(=N)N)C(=O)N[C@H](C)C(=O)N[C@H](Cc1ccccc1)C(=O)N[C@H](C)C(=O)N[C@H](Cc1ccccc1)C(=O)N[C@H](CCCNC(=N)N)C(=O)N[C@H](CCCNC(=N)N)C(N)=O [D-CONGA-HomoR, rrwa (homo r, homo r)lafafrr] (H-[dR][dR][dW][dA][d(hArg)][d(hArg)][dL][dA][dF][dA][dF][dR][dR]-NH2)

>  <MEASURE>
MIC in Broth Dilution, E. coli, RBC −

>  <EXPERIMENTAL_VALUE>
1.3

$$$$

Query string: Report value: MIC in Broth Dilution, E. coli, RBC −, system: E. coli, compound: CC(C)C[C@@H](NC(=O)[C@@H](CCCNC(=N)N)NC(=O)[C@@H](CCCNC(=N)N)NC(=O)[C@@H](C)NC(=O)[C@@H](Cc1c[nH]c2ccccc12)NC(=O)[C@@H](CCCNC(=N)N)NC(=O)[C@H](N)CCCNC(=N)N)C(=O)N[C@H](C)C(=O)N[C@H](Cc1ccccc1)C(=O)N[C@H](C)C(=O)N[C@H](Cc1ccccc1)C(=O)N[C@H](CCCNC(=N)N)C(N)=O [D-CONGA-ΔR13, rrwarrlafafr (All D)] (H-[dR][dR][dW][dA][dR][dR][dL][dA][dF][dA][dF][dR]-NH2)
Result string: 0.9

Query string: Give MIC in Broth Dilution, E. coli, RBC −; test system E. coli; compound CC(C)C[C@@H]1NC(=O)[C@H](CCCNC(=N)N)NC(=O)[C@H](CCCNC(=N)N)NC(=O)[C@H](C)NC(=O)[C@H](Cc2c[nH]c3ccccc23)NC(=O)[C@H](CCCNC(=N)N)NC(=O)[C@H](CCCNC(=N)N)NC(=O)CC[C@@H](C(N)=O)NC(=O)[C@H](CCCNC(=N)N)NC(=O)[C@H](CCCNC(=N)N)NC(=O)[C@H](Cc2ccccc2)NC(=O)[C@H](C)NC(=O)[C@H](Cc2ccccc2)NC(=O)[C@H](C)NC1=O [CYCLIZED-L-CONGA-E] (RRWARRLAFAFRRE-NH2; lactam N-14)
Result string: 22.9

Query string: Fill in MIC in Broth Dilution, E. coli, RBC − for CC(C)C[C@@H](NC(=O)[C@@H](CCCNC(=N)N)NC(=O)[C@H](CCCNC(=N)N)NC(=O)[C@@H](C)NC(=O)[C@@H](Cc1c[nH]c2ccccc12)NC(=O)[C@@H](CCCNC(=N)N)NC(=O)[C@H](N)CCCNC(=N)N)C(=O)N[C@H](C)C(=O)N[C@H](Cc1ccccc1)C(=O)N[C@@H](C)C(=O)N[C@H](Cc1ccccc1)C(=O)N[C@H](CCCNC(=N)N)C(=O)N[C@H](CCCNC(=N)N)C(N)=O [D-CONGA-L(R5, A10), rrwaRrlafAfrr] (H-[dR][dR][dW][dA]R[dR][dL][dA][dF]A[dF][dR][dR]-NH2) tested with E. coli.
Result string: 1.4

Query string: Param request: MIC in Broth Dilution, E. coli, RBC − | system E. coli | item CC(C)C[C@@H](NC(=O)[C@@H](CCCNC(=N)N)NC(=O)[C@H](N)CCCNC(=N)N)C(=O)N[C@H](C)C(=O)N[C@H](Cc1ccccc1)C(=O)N[C@H](C)C(=O)N[C@H](Cc1ccccc1)C(=O)N[C@H](Cc1c[nH]c2ccccc12)C(=O)N[C@H](C)C(=O)N[C@H](CCCNC(=N)N)C(=O)N[C@H](CCCNC(=N)N)C(=O)N[C@H](CCCNC(=N)N)C(=O)N[C@H](CCCNC(=N)N)C(N)=O [D-CONGA-FLIP, rrlafafwarrrr (All D)] (H-[dR][dR][dL][dA][dF][dA][dF][dW][dA][dR][dR][dR][dR]-NH2)
Result string: 1
